systemTested: T1, PSMA Fab (006 PSMA Fab) (Fab biotinylated for capture on neutravidin plates (site not stated))
T1 construct: also called Anti-PSMA Fab; anti-PSMA Fab
procedureText: phage ELISA: clonal phage supernatant on biotinylated PSMA Fab captured on neutravidin plate, blocking buffer alone, anti-M13-HRP detection
Reported Phage binding ELISA signal, Anti-PSMA Fab values follow for various binders
valueType: Phage binding ELISA signal, Anti-PSMA Fab

>>> print(df.to_string())
                                     binder  result
0  YEQLCKPLWMCQGF [Phage-3075 (peptide-180 library clone)]    2.12
1  DGPLCVPQWMCLWL [Phage-3082 (peptide-180 library clone)]    2.11
2  VNHLCKPTWMCAGF [Phage-3077 (peptide-180 library clone)]    2.12
3  TASWCKPGGACKGF [Phage-3074 (peptide-180 library clone)]    2.12
